Recorded %Inh for the following compounds
System: EPHA4;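 further: KINOMEscan kinase panel screen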
Details: concentration: 1 μM, replicates: in singlicate; n = 1
Respond numerically; units are % and should not be typed.

Guide cases for %Inh, answers given:
Tell me reported %Inh for "CC(C)(C)c1ccc(C(=O)Nc2cn3cc(-c4ccccc4)ccc3n2)cc1" , tested with EPHA4. 6

Lab request: please report %Inh under test system EPHA4 for "CCC(=O)c1c(-c2ccccc2)c2cc(Cl)ccc2c(=O)n1Cc1ccc(C(=O)O)cc1" 7

For EPHA4, provide %Inh of "CCCNC(=O)Nc1ccc(Oc2ncnc3ccn(C)c23)cc1" please. 3

Recall the recorded %Inh for "C[C@@H]1CC[C@H](C(=O)NC2CCCCC2)CN1c1cc(-c2ccc3c(N)n[nH]c3c2)nc(N)n1" with EPHA4 and state it. 12

Lab note: need %Inh with EPHA4 for entry "CN(C)c1cc(-c2ccc3c(N)n[nH]c3c2)nc(N)n1" , please look it up. 8

Notebook entry, EPHA4 assay: %Inh of "O=c1cc(N2CCOCC2)nc2n(Cc3ccc(F)c(Cl)c3)ccn12" = ? 3

Fill in the recorded %Inh for this compound, with EPHA4 as test system: "COc1ccc(-c2cc3c(C)nc(N)nc3n([C@H]3CC[C@H](O)CC3)c2=O)cn1" 0

Moving on to another compound below.
// lookup %Inh | system=EPHA4 | key= "CCC(=O)c1c(-c2ccccc2)c2cc(Cl)ccc2c(=O)n1Cc1cc(S(C)(=O)=O)n(CC(F)F)n1" 2

Where do these numbers come from? They come from paper PMC5540273.
